All values here come from PubChem BioAssay (NCI).

# test: NCI Yeast Anticancer Drug Screen. Data for the sgs1 mgt1 strain (AID 161);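 note: 0% = growth of cultures given vehicle only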
# recorded.conditions: S. cerevisiae sgs1 mgt1 strain, at 5.0 µM (retest, dose inferred, filed as 0.5)
About 79,000 compounds went through this panel and 15% of them were active in at least one assay; those are over-represented in the sample as a whole. Activity calls are given as the source filed them. Cut-off read from the data, not from the text of the source: active = growth inhibition above about 70%; inactive = the rest.
Give one outcome, nothing more. List: yes for active, no for inactive

Worked set:
QUERY: Outcome? COc1ccc(C(c2c(O)c3ccccc3oc2=O)N2CCOCC2)c(OC)c1 (stereo unspecified)
RESULT: no

QUERY: Outcome? CCCC(/C=N/N=C(N)N)=N\N=C(N)N
RESULT: no

QUERY: Outcome? CC1=NOC(=O)C1N=Nc1ccc(Br)cc1C (stereo unspecified)
RESULT: yes

QUERY: Outcome? Clc1ccc(C2SCc3nc4ccccc4n32)cc1Cl (stereo unspecified)
RESULT: no

QUERY: Outcome? O=C1OC(c2cccc(Cl)c2)Sc2ccccc21 (stereo unspecified)
RESULT: no

Next:
QUERY: Outcome? O=C(O)C(CCc1cccc2ccccc12)c1ccccc1 (stereo unspecified)
RESULT: no

---

# test: NCI Yeast Anticancer Drug Screen. Data for the cln2 rad14 strain (AID 165);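 note: 0% = growth equal to vehicle treated cultures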
# recorded.conditions: S. cerevisiae cln2 rad14 strain, at 5.0 µM (retest, dose inferred, filed as 0.5)
The panel holds about 79,000 compounds, 15% with a hit somewhere; the sample as a whole holds those more often. Activity calls are given as the source filed them. Cut-off read from the data, not from the text of the source: active = growth inhibition above about 70%; inactive = the rest.
Give one outcome, nothing more. List: YES = active, NO = inactive

QUERY: Outcome? O=S(=O)(O)CC[S][Sn]([S]CCS(=O)(=O)O)([c]1ccccc1)[c]1ccccc1 (tested in a mixture with another compound)
RESULT: NO

QUERY: Outcome? NCCCC(=O)NC(Cc1cnc[nH]1)C(=O)O (stereo unspecified)
RESULT: NO

QUERY: Outcome? O=C(c1ccccc1)c1ccc(Cl)cc1
RESULT: NO

QUERY: Outcome? CCOP(=O)(OCC)/C(C#N)=C/c1ccc(Oc2ccccc2)cc1
RESULT: NO

QUERY: Outcome? CC12CCC(C(Br)(Br)C1=O)C2(C)C (stereo unspecified)
RESULT: NO

QUERY: Outcome? NC1=NOC(=O)C1Cc1ccccc1 (stereo unspecified)
RESULT: NO

QUERY: Outcome? CCCCCCCCCc1cc(=O)[nH]c(=S)[nH]1
RESULT: NO

QUERY: Outcome? CN(C)CCCNc1c2ccccc2nc2ccc([N+](=O)[O-])cc12
RESULT: NO

---

# test: NCI Yeast Anticancer Drug Screen. Data for the bub3 strain (AID 167)
# recorded.conditions: S. cerevisiae bub3 mutant strain, at 50.0 µM
This is part of a sample that, as a whole, favours compounds with a hit. Of some 79,000 tested, about 15% had one in any assay. Activity calls are given as the source filed them. Rule as the data show it: active = growth inhibition above about 70%; inactive = the rest.
Give one outcome, nothing more. List: active, inactive

Worked set:
QUERY: Outcome? CC(=O)Oc1ccccc1N(C(C)=O)S(=O)(=O)c1ccc(C)cc1
RESULT: active

QUERY: Outcome? OC(CCN1CCOCC1)(c1cccc(Cl)c1)C1CCCCC1 (stereo not given)
RESULT: active

QUERY: Outcome? Cn1c2c(c3nc(N)nc(N)c3c1=O)CCc1ccccc1-2
RESULT: inactive

QUERY: Outcome? CC(=O)OC12CCC3C4CC=C5CC(O)CCC5(C)C4C(=O)C3C1(C)N1CC(C)CC(O)C1C2C (stereo not given)
RESULT: inactive

QUERY: Outcome? CCN1/C(=C\c2cc(C)nc(-c3ccccc3)[n+]2C)C=Cc2ccccc21
RESULT: active

Further cases:
QUERY: Outcome? O=S(=O)(O)CC[S][Sn]([S]CCS(=O)(=O)O)([c]1ccccc1)[c]1ccccc1 (tested in a mixture with another compound)
RESULT: active

QUERY: Outcome? O=[N+]([O-])c1ccc(NS(=O)(=O)c2ccc(Cl)c(Cl)c2Cl)c([N+](=O)[O-])c1
RESULT: inactive

QUERY: Outcome? NC(=S)N/N=C\C12CC3CC(CC(C3)C1)C2
RESULT: active

QUERY: Outcome? COc1ccc2c(c1)CCCN2CCCCCCCN1CCCCC1
RESULT: active

QUERY: Outcome? Clc1ccc2nc3ccccc3nc2c1
RESULT: active

---

growth inhibition listing for selected molecules.
# test: NCI Yeast Anticancer Drug Screen. Data for the cln2 rad14 strain (AID 165);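 note: 0% = growth equal to vehicle treated cultures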
# recorded.conditions: S. cerevisiae cln2 rad14 strain, at 5.0 µM (retest, dose inferred, filed as 0.5), stronger effect = higher value
The panel holds about 79,000 compounds, 15% with a hit somewhere; the sample as a whole holds those more often.
All answers are understood in %, so give the number only.

# annotated cases, reported growth inhibition shown
QUERY: Entry under review: COc1ccc(-n2c3c(c4c(N)ncnc42)CCCC3)cc1 . Reported growth inhibition?
RESULT: -11

QUERY: Entry under review: CCOc1ccc(N=Nc2c(C)nn(C(=S)SC)c2OCC)cc1 . Reported growth inhibition?
RESULT: -13

QUERY: Entry under review: CNC(=O)NC(c1cc(OC)c(OC)c(OC)c1)c1cc2c(cc1O)OCO2 (centres undefined) . Reported growth inhibition?
RESULT: -28

QUERY: Entry under review: Oc1c(Cl)cc(Cl)cc1/C=C1\C=Nc2ccccc21 . Reported growth inhibition?
RESULT: 13

QUERY: Entry under review: CC(=O)N(N)c1ccccc1 . Reported growth inhibition?
RESULT: 4

Further cases:
QUERY: Entry under review: CCOC(=O)c1sc2c(c1O)c(=O)n(-c1ccccc1)c(=S)n2-c1ccccc1 . Reported growth inhibition?
RESULT: 86

QUERY: Entry under review: COc1cc(C2C=C(c3ccccc3)Oc3cc4c(cc32)OCO4)cc(OC)c1OC (centres undefined) . Reported growth inhibition?
RESULT: -10

---

# test: NCI Yeast Anticancer Drug Screen. Data for the mlh1 rad18 strain (AID 175)
# recorded.conditions: S. cerevisiae mlh1 rad18 strain growth inhibition; at 5.0 µM (retest, dose inferred, filed as 0.5)
About 79,000 compounds went through this panel and 15% of them were active in at least one assay; those are over-represented in the sample as a whole. Active and inactive are the calls of the source. No stated cut-off is given here; in the data, active means growth inhibition above about 70%; inactive means the rest.
Give one outcome, nothing more. List: active, inactive

QUERY: Outcome? S=c1[nH]nc(SCc2ccc(Cl)c(Cl)c2)c2[nH]cnc12
RESULT: inactive

QUERY: Outcome? [Cu+2].[O-]/N=C/c1cccc(O)c1[O-].[O-]/N=C/c1cccc(O)c1[O-]
RESULT: inactive

---

# test: NCI Yeast Anticancer Drug Screen. Data for the rad50 strain (AID 155);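 note: 0% = growth of vehicle-only cultures of the same strain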
# recorded.conditions: S. cerevisiae rad50 strain growth inhibition; at 50.0 µM (retest, dose inferred, filed as 5.0); stronger effect = higher value
Compounds without any hit were thinned out: in the full panel of roughly 79,000, 15% have a hit. The source made the active and inactive calls. Cut-off read from the data, not from the text of the source: active = growth inhibition above about 70%; inactive = the rest.
result.type: growth inhibition

# annotated cases, reported growth inhibition shown
QUERY: Entry under review: C=CCC1(OC(C)=O)CC2C(=O)C(=O)C(C1)N2OC(=O)c1ccccc1 (stereo not given) . Reported growth inhibition?
RESULT: 95% (active)

QUERY: Entry under review: Cc1c(CCCl)c(N=[N+]=[N-])n2c(nc3ccccc32)c1C#N . Reported growth inhibition?
RESULT: 46% (inactive)

Further cases:
QUERY: Entry under review: Oc1ccc(C(=C(Br)c2ccccc2)c2ccc(O)cc2)cc1 . Reported growth inhibition?
RESULT: 98% (active)

QUERY: Entry under review: COC(=O)C1C(=O)CC(c2ccccc2)C1c1ccccc1 (stereo not given) . Reported growth inhibition?
RESULT: -4% (inactive)

QUERY: Entry under review: CCC(C)CNCCCCCNc1cc(OC)cc2cccnc12 (stereo not given) . Reported growth inhibition?
RESULT: 67% (inactive)

---

# test: NCI Yeast Anticancer Drug Screen. Data for the mec2-1 strain (AID 157)
# recorded.conditions: S. cerevisiae mec2-1 strain, at 50.0 µM, stronger effect = higher value
# Description: Growth inhibition of yeast strains with defined genetic alterations is measured as a screen for potential anti-cancer activity. Selected strains with alterations in DNA damage repair or cell cycle control were exposed to compounds and growth inhibition was measured relative to vehicle treated controls. The strain used in this assay is mec2-1
This is part of a sample that, as a whole, favours compounds with a hit. Of some 79,000 tested, about 15% had one in any assay.
result.type: growth inhibition (%)
All answers are understood in %, so give the number only.

# annotated cases, reported growth inhibition shown
QUERY: Entry under review: CCCCN(CCCC)c1ccc2c(c1)C(O)c1ccccc1-2 (centres undefined) . Reported growth inhibition?
RESULT: 59.2

QUERY: Entry under review: O=c1cccccc1[O-].O=c1cccccc1[O-].O=c1cccccc1[O-].[Nd+3] . Reported growth inhibition?
RESULT: 91

QUERY: Entry under review: CCCCCCCCCCCCCCCCOc1ccc(S(=O)(=O)N/N=c2/sc3ccc(S(=O)(=O)O)cc3n2C)cc1C(=O)O . Reported growth inhibition?
RESULT: 78.7

QUERY: Entry under review: CCCCCCCCCCCCCCCC[N+](C)(C)C(C)c1ccccc1 (centres undefined) . Reported growth inhibition?
RESULT: 90.7

QUERY: Entry under review: CC(=O)Oc1c(Br)ccc2cc(C(Br)Br)c(C(=O)c3ccccc3)nc12 . Reported growth inhibition?
RESULT: 87.5

Further cases:
QUERY: Entry under review: COc1cccc2c1C(=O)c1c(O)c3c(c(O)c1C2=O)CC(O)(C(C)=O)CC3OC1OC(COC(C)=O)C(OC(C)=O)C(OC(C)=O)C1OC(C)=O (centres undefined) . Reported growth inhibition?
RESULT: 97.5

QUERY: Entry under review: CN(C)CC/C(=N\Nc1ccc(Cl)cc1Cl)c1ccccc1 . Reported growth inhibition?
RESULT: 99.5
